Reference source for all entries: BindingDB's records for doi:10.1016/j.bmc.2012.12.010

# runDescription: Inhibition of MDR1 (unknown origin) transfected in human SKOV3 cells assessed as growth inhibition after 48 hrs by SRB assay
experimentalEndpoint: IC50

Respond only with IC50 recorded for CCOc1ccc(N(C)c2nc(N)nc3[nH]c4ccccc4c23)cc1 29 nM

Now consider a different compound.
Respond only with IC50 recorded for CCN(c1ccc(OC)cc1)c1nc(N)nc2[nH]c3ccccc3c12 72 nM
